Values from the SangsterLogP compilation

assay.readout: logP
Could you respond with only the numeric value?

Exercise: Recorded logP of "CCCCCOC(=O)C(C(=O)OCCCCC)=C1SCCS1" , please.
Key: 5.6

Exercise: Entry CC(C)OC(=O)C(C(=O)OC(C)C)=C1SCCS1=O (stereo not given) : reported logP = ?
Key: 1.6

Exercise: Which logP is listed for "COC(=O)C(C(=O)OC)=C1SCCS1" ?
Key: 1.51

Exercise: Need logP of "CCCOC(=O)C(C(=O)OCCC)=C1SCCS1" , thanks.
Key: 3.38

Exercise: Reported logP, compound "CC(C)(C)OC(=O)C(C(=O)OC(C)(C)C)=C1SCCS1" : ____
Key: 4.01

Exercise: Can you look up the measured logP of "CCOC(=O)C(C(=O)OC(C)C)=C1SCCS1" for me?
Key: 2.9

Exercise: So what's the measured logP for this one? "CCCCOC(=O)C(C(=O)OCCCC)=C1SCCS1"
Key: 4.6

Exercise: Requested read-out: logP. Entry: "CCCCCCCOC(=O)C(C(=O)OCCCCCCC)=C1SCCS1"
Key: 7.6

Exercise: Record request: logP value, item "CSC(SC)=C(C(=O)OC(C)C)C(=O)OC(C)C"
Key: 3.38

Exercise: Which logP value is on record for "CCOC(=O)C(C(=O)OCC)=C1SCCS1" ?
Key: 2.45
